biological target: furin, P09958; test: furin cleavage Z-score vs untreated control; higher = more cleavage, active = 3.5 or more, inactive = 1 or less, 8 variable residues between constant flanks; conditions: 15 min;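 also: purified furin at 1:10 enzyme:substrate in 50 mM HEPES pH 7.5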
Sequence (P09958 whole entry): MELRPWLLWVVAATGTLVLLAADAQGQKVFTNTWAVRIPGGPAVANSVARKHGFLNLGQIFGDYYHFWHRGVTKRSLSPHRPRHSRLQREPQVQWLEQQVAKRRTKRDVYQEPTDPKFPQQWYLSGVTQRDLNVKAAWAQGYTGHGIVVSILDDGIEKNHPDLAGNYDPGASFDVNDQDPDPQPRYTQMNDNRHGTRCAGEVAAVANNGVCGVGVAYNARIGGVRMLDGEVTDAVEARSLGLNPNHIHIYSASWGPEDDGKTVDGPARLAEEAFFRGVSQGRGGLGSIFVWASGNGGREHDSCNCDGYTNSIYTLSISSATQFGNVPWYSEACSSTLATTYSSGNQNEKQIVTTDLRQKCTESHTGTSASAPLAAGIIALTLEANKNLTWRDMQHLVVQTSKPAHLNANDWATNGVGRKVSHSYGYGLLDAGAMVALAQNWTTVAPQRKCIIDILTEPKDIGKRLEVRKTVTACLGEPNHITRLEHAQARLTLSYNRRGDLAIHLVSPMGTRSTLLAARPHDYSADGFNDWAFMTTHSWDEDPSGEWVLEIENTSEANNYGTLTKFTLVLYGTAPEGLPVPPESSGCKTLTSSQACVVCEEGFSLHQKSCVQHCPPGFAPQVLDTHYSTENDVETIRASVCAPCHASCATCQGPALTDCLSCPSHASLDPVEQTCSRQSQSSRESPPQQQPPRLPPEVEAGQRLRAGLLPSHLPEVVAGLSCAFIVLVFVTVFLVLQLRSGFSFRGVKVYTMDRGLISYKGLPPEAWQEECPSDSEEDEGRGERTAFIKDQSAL
The list shows a part of the results. The hit rate among all sequences tested is not known here.
Items are presented alongside their recorded furin cleavage Z-score.
quantity-kind: furin cleavage Z-score

>  <record-sequence>
CARYKRKMTQAGNASASA [FS-1979]

>  <quantity-kind>
furin cleavage Z-score

>  <recorded-value>
-0.612

$$$$
>  <record-sequence>
CARCARSSFTAGNASASA [FS-2895]

>  <quantity-kind>
furin cleavage Z-score

>  <recorded-value>
-0.507

$$$$
>  <record-sequence>
CARNVRFSDEAGNASASA [FS-2223]

>  <quantity-kind>
furin cleavage Z-score

>  <recorded-value>
-0.141

$$$$
>  <record-sequence>
CAIKSLTERLAGNASASA [HC1497]

>  <quantity-kind>
furin cleavage Z-score

>  <recorded-value>
-0.416

$$$$
>  <record-sequence>
CARYKRMVERAGNASASA [FS-2537]

>  <quantity-kind>
furin cleavage Z-score

>  <recorded-value>
7.48

$$$$
>  <record-sequence>
CACYSIEPLDAGNASASA [HC1596]

>  <quantity-kind>
furin cleavage Z-score

>  <recorded-value>
-1.75

$$$$
>  <record-sequence>
CAVLDSHYQDAGNASASA [HC1400]

>  <quantity-kind>
furin cleavage Z-score

>  <recorded-value>
-1.98

$$$$
>  <record-sequence>
CAVKSRLKRLAGNASASA [FS-890]

>  <quantity-kind>
furin cleavage Z-score

>  <recorded-value>
12

$$$$
>  <record-sequence>
CARERRDAGRAGNASASA [FS-2137]

>  <quantity-kind>
furin cleavage Z-score

>  <recorded-value>
10.7

$$$$
>  <record-sequence>
CAYGFQYSPGAGNASASA [HC1466]

>  <quantity-kind>
furin cleavage Z-score

>  <recorded-value>
0.304

$$$$
>  <record-sequence>
CARYKRKSDEAGNASASA [FS-3177]

>  <quantity-kind>
furin cleavage Z-score

>  <recorded-value>
5.6

$$$$
>  <record-sequence>
CAHSSRLKRLAGNASASA [FS-1011]

>  <quantity-kind>
furin cleavage Z-score

>  <recorded-value>
7.96

$$$$
>  <record-sequence>
CAKGYRGKRAAGNASASA [FS-448]

>  <quantity-kind>
furin cleavage Z-score

>  <recorded-value>
9.64

$$$$
>  <record-sequence>
CAAKQRGKRAAGNASASA [FS-578]

>  <quantity-kind>
furin cleavage Z-score

>  <recorded-value>
6.99

$$$$
>  <record-sequence>
CARERRRAAKAGNASASA [FS-2550]

>  <quantity-kind>
furin cleavage Z-score

>  <recorded-value>
0.314

$$$$
